B1: Hairpin Ribozyme (parent)
chain: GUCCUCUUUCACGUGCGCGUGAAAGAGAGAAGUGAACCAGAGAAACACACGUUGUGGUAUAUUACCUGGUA

- Variants of: B1
- protocolSummary: self-cleavage, relative activity (ratio to wild type); higher = more cleavage; co-transcriptional
resultType: self-cleavage

QUERY: Entry U14C U52C has what self-cleavage?
RESULT: 0.938

QUERY: Entry G56C A59C has what self-cleavage?
RESULT: 0.154

QUERY: Entry G13C G51U has what self-cleavage?
RESULT: 0.61

QUERY: Entry U7G G27C has what self-cleavage?
RESULT: 0.152

QUERY: Entry U9C C48A has what self-cleavage?
RESULT: 0.0859
